experiment: chemical genetic growth profiling, strain panel (AID 1159580);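 also: tested at 20 µM; growth read once vehicle control cultures reached saturation at 30 °C; 1 = growth at the plate median or of vehicle wells; lower values mean less growth of the strain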; conditions: S. cerevisiae deletion strains, growth OD, locus YLR418C, strain cdc73
The campaign covered roughly 5,500 compounds. About 2,000 (36%) were called active. Inconclusive results (about 18%) are left out. Rule as the data show it: active = normalized growth mostly below about 0.91 (no sharp cut-off); inconclusive = no clear call, values can overlap the other calls; inactive = mostly above about 0.92. The list shows a part of the results.
Give one outcome, nothing more. List: 1 = active, -1 = inactive

Problem: Could you please tell me the result logged for COC(=O)c1c(OC)cc2c(c1C)Oc1c(Cl)c(OC(C)=O)c(Cl)c(C)c1C(=O)O2 in this assay?
Result: -1

Problem: Could you please tell me the result logged for CC(=O)Oc1c(Cl)c(C)c2c(c1Cl)OC(=O)c1c(C)c(Cl)c(OC(C)=O)c(Cl)c1O2 in this assay?
Result: 1

Problem: Could you please tell me the result logged for COC(=O)c1c(C)c2c(c(C)c1OC)OC(=O)c1c(C)c(Cl)c(OC)c(Cl)c1O2 in this assay?
Result: -1

Problem: Could you please tell me the result logged for Nc1ccc(S(=O)(=O)NC(=O)c2ccccc2)cc1 in this assay?
Result: -1

Problem: Could you please tell me the result logged for O=C(O)c1cc(O)c2c(c1)[C@@H]([C@H]1c3cc(C(=O)O)cc(O)c3C(=O)c3c(O[C@H]4O[C@H](CO)[C@@H](O)[C@H](O)[C@H]4O)cccc31)c1cccc(O[C@H]3O[C@H](CO)[C@@H](O)[C@H](O)[C@H]3O)c1C2=O in this assay?
Result: -1

Problem: Could you please tell me the result logged for CCN(CC)CCOC(=O)C(c1ccccc1)C1CCCCC1 (centres undefined) in this assay?
Result: -1

Problem: Could you please tell me the result logged for COC(=O)c1c(C)c2c(c(C)c1O)OC(=O)c1c(C)c(Cl)c(O)c(Cl)c1O2 in this assay?
Result: 1

Problem: Could you please tell me the result logged for O=C(O)c1cccnc1 in this assay?
Result: -1

Problem: Could you please tell me the result logged for O=C(NCO)c1cccnc1 in this assay?
Result: -1

###

What normalized growth was measured for each of the following?
experiment: chemical genetic growth profiling, strain panel (AID 1159580);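 also: tested at 20 µM; growth read once vehicle control cultures reached saturation at 30 °C; 1 = growth at the plate median or of vehicle wells; lower values mean less growth of the strain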; conditions: S. cerevisiae deletion strains, growth OD, locus YOR083W, strain WHI5, stronger effect = lower value
Among all 5,500 compounds or so, about 2,000 (36%) were called active. Another 18% or so got no clear call; they are omitted. This is one part of the list.
Reply with just the number.

The compound listed as CC(=O)O[C@H]1CC[C@@]2(C)C(=CC(=O)C3C4CCC(C(C)CCCC(C)C)[C@@]4(C)CCC32)C1 (stereo partly specified) shows normalized growth equal to 0.98

The compound listed as CN(C)CCCN1c2ccccc2CCc2ccccc21 shows normalized growth equal to 0.995

The compound listed as CC(C)CCCC(C)[C@H]1CCC2C3C(=O)C=C4C[C@@H](O)CC[C@]4(C)C3CC[C@@]21C (stereo partly specified) shows normalized growth equal to 0.969

The compound listed as CN[C@@H]1[C@H](O)[C@H](NC)[C@H]2O[C@@]3(O)C(=O)C[C@@H](C)O[C@H]3O[C@@H]2[C@H]1O shows normalized growth equal to 0.982

The compound listed as Cc1cn[nH]c1 shows normalized growth equal to 1.02

The compound listed as CN(C)C(=O)Oc1cccc([N+](C)(C)C)c1 shows normalized growth equal to 0.998

The compound listed as COc1ccc2cc(CCC(C)=O)ccc2c1 shows normalized growth equal to 0.985

The compound listed as COc1cc(C/C=C/c2ccccc2)c(OC)cc1O shows normalized growth equal to 0.934

The compound listed as O=C(O)c1ccccc1 shows normalized growth equal to 0.961

The compound listed as Cc1nc(N)cc(C[n+]2csc(CCO)c2C)n1 shows normalized growth equal to 0.969

The compound listed as COC(=O)/C(=C1\OC(=O)C(c2ccccc2)=C1O)c1ccccc1 shows normalized growth equal to 0.968

The compound listed as CC(CCc1ccccc1)NCC(O)c1ccc(O)c(C(N)=O)c1 (stereo unspecified) shows normalized growth equal to 1.01

The compound listed as Nc1ccc(C(=O)O)cc1 shows normalized growth equal to 1.05

The compound listed as O=C(O)c1cc(O)c2c(c1)[C@@H]([C@H]1c3cc(C(=O)O)cc(O)c3C(=O)c3c(O[C@H]4O[C@H](CO)[C@@H](O)[C@H](O)[C@H]4O)cccc31)c1cccc(O[C@H]3O[C@H](CO)[C@@H](O)[C@H](O)[C@H]3O)c1C2=O shows normalized growth equal to 0.957

The compound listed as CC(C)CCCC(C)C1CCC2C3C[C@@H](O)[C@@]4(O)C[C@@H](O)CC[C@]4(C)C3CC[C@]12C (stereo partly specified) shows normalized growth equal to 0.983

The compound listed as CC(C)=CCc1c2c(c3occ(-c4ccc(O)cc4)c(=O)c3c1O)C=CC(C)(C)O2 shows normalized growth equal to 0.866

The compound listed as C/C1=C/CC(C)(C)/C=C/C/C(C)=C/CC1 shows normalized growth equal to 1.02

The compound listed as Cc1scc2c1N(C(=O)CN1CCN(C)CC1)c1ccccc1NC2=O shows normalized growth equal to 0.982

The compound listed as CCOC(=O)[C@H](CCc1ccccc1)N[C@@H](C)C(=O)N1CCC[C@H]1C(=O)O shows normalized growth equal to 0.934

The compound listed as COC(=O)c1c(OC)cc2c(c1C)Oc1c(Cl)c(O)c(Cl)c(C)c1C(=O)O2 shows normalized growth equal to 0.997

The compound listed as CC(Cc1cccc(C(F)(F)F)c1)NCCOC(=O)c1ccccc1 (stereo unspecified) shows normalized growth equal to 0.913

The compound listed as NC(=O)c1cccnc1 shows normalized growth equal to 0.986

The compound listed as NC1=NCCN1CC(=O)O shows normalized growth equal to 0.959

The compound listed as COc1cc(C(C)=O)cc(OC)c1O shows normalized growth equal to 1.03

The compound listed as COC1CC2CCC(C)C(O)(O2)C(=O)C(=O)N2CCCCC2C(=O)OC(C(C)CC2CCC(O)C(OC)C2)CC(=O)C(C)/C=C(\C)C(O)C(OC)C(=O)C(C)CC(C)/C=C/C=C/C=C/1C (stereo unspecified) shows normalized growth equal to 0.0613

The compound listed as CC(N=C(NC#N)Nc1ccncc1)C(C)(C)C (stereo unspecified) shows normalized growth equal to 0.956

The compound listed as O=C(NCO)c1cccnc1 shows normalized growth equal to 1

The compound listed as CC(C)(C)NCC(O)c1ccc(O)c(CO)c1 (stereo unspecified) shows normalized growth equal to 0.966

The compound listed as CC(=O)Nc1ccc(S(=O)(=O)Nc2onc(C)c2C)cc1 shows normalized growth equal to 0.997

The compound listed as CC(C)NCC(O)COc1ccc(COCCOC(C)C)cc1 (stereo unspecified) shows normalized growth equal to 1

The compound listed as CC(=O)c1cc(CC=C(C)C)c(O)c(CC=C(C)C)c1 shows normalized growth equal to 1

The compound listed as CN(C)CCCN1c2ccccc2CCc2ccc(Cl)cc21 shows normalized growth equal to 0.985

The compound listed as CC1(C)CC2C1CC[C@]1(C)CCC3C(C(=O)O)CC(=O)O[C@@]32C1 (stereo partly specified) shows normalized growth equal to 1.08

The compound listed as CC(C)CCCC(C)C1CCC2C3CC(=O)[C@H]4C[C@@H](O)CC[C@]4(C)C3CC[C@]12C (stereo partly specified) shows normalized growth equal to 1.02

The compound listed as CC12CCC3C(CC3(C)C)C(C)(CCC1=O)O2 (stereo unspecified) shows normalized growth equal to 1.03

The compound listed as CC(=O)O[C@H]1CC[C@@]2(C)C(C[C@@H](OC(C)=O)[C@@]3(C)C4=CC(=O)O[C@@H](c5ccoc5)[C@]4(C)CCC23)C1(C)C (stereo partly specified) shows normalized growth equal to 1

The compound listed as O=C(O)C1=CCCNC1 shows normalized growth equal to 1.01

The compound listed as CCC(C)[C@H]1O[C@]2(C=C[C@@H]1C)C[C@@H]1C[C@@H](C/C=C(\C)[C@@H](OC3C[C@H](OC)C(O[C@H]4C[C@H](OC)[C@@H](O)[C@H](C)O4)[C@H](C)O3)[C@@H](C)/C=C/C=C3\CO[C@@H]4[C@H](O)C(C)=C[C@@H](C(=O)O1)[C@]34O)O2 (stereo partly specified) shows normalized growth equal to 0.901

The compound listed as CCCN(CCC)S(=O)(=O)c1ccc(C(=O)O)cc1 shows normalized growth equal to 0.953

The compound listed as COC(=O)c1c(C)c2c(c(C)c1O)OC(=O)c1c(C)c(Cl)c(O)c(Cl)c1O2 shows normalized growth equal to 0.932

The compound listed as CC(C)c1ccc2c(c1)CCC1[C@](C)(CN)CCC[C@]21C (stereo partly specified) shows normalized growth equal to 0.904
